Reference source for all entries: PubChem BioAssay (NCI)

Tested on: RPMI-8226 leukemia
Experiment: NCI-60 one-dose screen, 48 h (100 = growth as untreated, 0 = no growth, -100 = all killed)
Details: 10 µM unless noted
The panel holds about 83,000 compounds, 20% with a hit somewhere; the sample as a whole holds those more often. Calls of active or inactive are those of the source. How the source made its calls: active means growth percent below 10; inactive means the rest.
observed property: growth

Prompt line: Record request: growth value, item COc1ccc(C(=O)CC#N)cc1
Response line: 110% (inactive)

Prompt line: Same question, CCCCC/C=C/C(C)=C/C1CC(C)C/C=C/CCC(O)C(OC(N)=O)CCC(C)CC(O)C(C)C(=O)O1 (stereo not drawn) this time
Response line: 56.3% (inactive)

Prompt line: Same question, O=C(/C=C/c1ccc(F)cc1)c1ccc(NC(=O)N2CCN(c3cc4c(cc3F)c(=O)c(C(=O)O)cn4C3CC3)CC2)cc1 this time
Response line: 98.6% (inactive)

Prompt line: Same question, Cc1c2cc[nH]c(=O)c2c(C)c2c1[nH]c1cc(OCCN3CCN(C)CC3)ccc12 this time
Response line: -8.18% (active)

Prompt line: Same question, NC(=NCCCOc1ccc(F)cc1)Nc1ccc(Cl)cc1 this time
Response line: 85.3% (inactive)

Prompt line: Same question, O=C(c1nc2ccccc2[nH]1)C1C(c2ccc(Cl)cc2)C2CC3CCCC[C@H]3N2[C@@]12C(=O)Nc1cc(Cl)ccc12 (stereo partly drawn) this time
Response line: 16.8% (inactive)

Prompt line: Same question, O=C1Nc2ccccc2/C1=C\c1c(-c2ccc(F)cc2)nc2ccccn12 this time
Response line: 94.8% (inactive)

Prompt line: Same question, O=[N+]([O-])CC(c1ccccc1)c1c[nH]c2ccccc12 (stereo not drawn) this time
Response line: 50.7% (inactive)

Prompt line: Same question, CC(=O)[C@@H]1CC[C@]2(C(N)=O)CC[C@]3(C)[C@H](CC[C@@H]4[C@@]5(C)CCCNC(C)(C)[C@@H]5CC[C@]43C)[C@@H]12 this time
Response line: 61.7% (inactive)

Prompt line: Same question, CC(C)N1C(=O)/C(=C2\SC(=S)N(C(C)C)C2=O)SC1=S this time
Response line: 92.9% (inactive)

Prompt line: Same question, O=C(NCCc1ccccc1)Nc1ccc2cc3ccc(NC(=O)NCCc4ccccc4)cc3nc2c1 this time
Response line: 49.1% (inactive)

Prompt line: Same question, CCOC(=O)c1cc(C(=O)c2ccc(OC)cc2)n2ccc(/C=C/c3cc[n+](CC(=O)c4ccc(OC)cc4)cc3)cc12 this time
Response line: 10.4% (inactive)

Prompt line: Same question, CCCCCOc1ccc(/C=N/Nc2cc(C)nc3ccc(Cl)cc23)cc1 this time
Response line: -23.1% (active)

Prompt line: Same question, C=C(C)[C@@H]1CC[C@]2(C(=O)N[C@@H](Cc3ccccc3)C(=O)OC)CC[C@]3(C)[C@H](CC[C@@H]4[C@@]5(C)CCC(=O)C(C)(C)[C@@H]5CC[C@]43C)[C@@H]12 this time
Response line: 85.2% (inactive)

Prompt line: Same question, O=C(Nc1ccccc1C(=O)N/N=C(\c1ccccc1)c1ccccn1)c1ccc(F)cc1 this time
Response line: 29.1% (inactive)

Prompt line: Same question, CC(c1ccccc1)C(C(=O)c1ccccc1)c1ccccc1 (stereo not drawn) this time
Response line: 107% (inactive)

Prompt line: Same question, CCCCN1C=CCN(CCCC)C1 this time
Response line: 37.9% (inactive)

Prompt line: Same question, COc1cc(NCCCCCNC(C)(C)C)c2ncccc2c1 this time
Response line: 7.94% (active)

Prompt line: Same question, O=C(/C(=C\c1ccc([N+](=O)[O-])cc1)S(=O)Cc1ccc(Cl)cc1)c1ccc(Cl)cc1 (stereo not drawn) this time
Response line: 1.3% (active)

Prompt line: Same question, Cc1cccc(-c2cn3ccnc3c(-c3ccc4ncn(Cc5ccccc5)c4c3)n2)c1 this time
Response line: 62.5% (inactive)

Prompt line: Same question, N#Cc1cccc(-c2ccc3c(c2)NC(=O)/C3=C\c2ccc[nH]2)c1 this time
Response line: 54.1% (inactive)

Prompt line: Same question, N/C(=N\C(N)=N\c1nc2ccccc2s1)c1ccnc(Br)c1 this time
Response line: 23.6% (inactive)

Prompt line: Same question, C[C@H]1[C@H]2[C@H]3CC[C@@H]4[C@@]5(C)CC[C@H](O)C(C)(C)[C@@H]5CC[C@@]4(C)[C@]3(C)CC[C@]23CO[C@]1(C)[C@@H](C(=O)/C=C\c1ccco1)C3 this time
Response line: 106% (inactive)

Prompt line: Same question, N#CC1C(C#N)C2c3ccccc3C=CN2C1C(=O)c1ccc(Br)cc1 (stereo not drawn) this time
Response line: 110% (inactive)

Prompt line: Same question, CN1C(=O)NC(c2ccc3c(c2)OCO3)C=C1c1ccccc1 (stereo not drawn) this time
Response line: 65.5% (inactive)

Prompt line: Same question, COC(=O)C1=C(C(=O)ON)[C@@H]2C=C[C@@]1([C@@H](Cc1ccccc1)Nc1ccccc1)O2 this time
Response line: 21.7% (inactive)

Prompt line: Same question, c1ccc2cc(Cn3c(-c4cccc5ccccc45)[n+](Cc4ccc5ccccc5c4)c4c5ccccc5c5ccccc5c43)ccc2c1 this time
Response line: -38.7% (active)

Prompt line: Same question, Cc1ccc(S(=O)(=O)NNC(=O)/C(=C\c2ccc(Cl)cc2)c2nc3ccccc3s2)cc1 this time
Response line: 87% (inactive)

Prompt line: Same question, CCOC(=O)CC1CSC(N/N=C/c2ccc(-n3cccn3)cc2)=N1 (stereo not drawn) this time
Response line: 99.1% (inactive)

Prompt line: Same question, O=C(CCN1CCCC1)Nc1ccc2c(NCCCc3ccccc3)c3ccccc3nc2c1 this time
Response line: -36.6% (active)

Prompt line: Same question, COc1cc(C2C3=C(COC3=O)N(CCO)c3cc4c(cc32)CCC4)cc(OC)c1OC (stereo not drawn) this time
Response line: 17.9% (inactive)

Prompt line: Same question, COc1ccc(/C=C2\COc3ccc(-c4ccccc4)cc3C2=O)c(OC)c1 this time
Response line: 77.4% (inactive)

Prompt line: Same question, COc1cc2cc(Oc3cccc(NC(=O)Nc4cc(C(F)(F)F)cc(C(F)(F)F)c4)c3)c(C)nc2cc1OC this time
Response line: 1.15% (active)

Prompt line: Same question, O=c1[nH]nc(-c2ccccc2)c2sc3ncc(-c4ccc(Br)cc4)n3c12 this time
Response line: 12.4% (inactive)

Prompt line: Same question, C=CC(=O)N[C@@H](/C=C/C(=O)OCC)Cc1ccc(-c2cc(Cl)cc(Cl)c2)cc1 this time
Response line: -2.44% (active)

Prompt line: Same question, CC(=O)[C@H]1CCC/C=C/[C@@H]2C[C@H](O)C[C@H]2[C@H](O)/C=C/C(=O)O1 this time
Response line: 14.2% (inactive)

Prompt line: Same question, COCc1cnccc1NC1CCCCCC1 this time
Response line: 104% (inactive)

Prompt line: Same question, ClC1=C(Br)C(Br)(Br)C(=C(Br)Br)C1(Br)Br this time
Response line: 73.1% (inactive)
